- target-entity: CDK11A (Homo sapiens, UniProt Q9UQ88)
- Sequence (Q9UQ88 346-783): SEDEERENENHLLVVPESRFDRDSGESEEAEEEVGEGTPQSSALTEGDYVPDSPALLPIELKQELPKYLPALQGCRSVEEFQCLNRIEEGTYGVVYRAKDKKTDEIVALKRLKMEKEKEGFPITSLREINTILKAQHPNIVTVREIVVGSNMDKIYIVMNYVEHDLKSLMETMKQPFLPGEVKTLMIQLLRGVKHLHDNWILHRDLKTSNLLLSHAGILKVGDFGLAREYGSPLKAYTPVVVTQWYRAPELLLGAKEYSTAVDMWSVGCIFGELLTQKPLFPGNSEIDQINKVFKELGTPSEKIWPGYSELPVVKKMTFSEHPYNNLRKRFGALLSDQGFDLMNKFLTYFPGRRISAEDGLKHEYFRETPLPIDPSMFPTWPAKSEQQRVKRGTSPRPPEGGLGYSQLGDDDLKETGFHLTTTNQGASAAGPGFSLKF
- test-context: displacement of SNS-032-Atto590 probe (0.002 μM) from CDK11A-p58 (0.032 uM), fluorescence polarization
Counter-ions that a name gives are not always drawn.
Listed next: entries and their corresponding DC50.
measured-property: DC50 (nM)

1) Nc1cccc(-c2ccc3[nH]nc(NC(=O)C4CCCNC4)c3c2)c1F (stereo not shown) [cpd 11, hydrochloride]
183
2) CN(C)C1CCC(C(=O)Nc2n[nH]c3ccc(-c4c(Cl)cccc4Cl)cc23)CC1 (stereo not shown) [compound 166, hydrochloride]
133
3) Nc1ccc(-c2ccc3[nH]nc(NC(=O)C4CCCNC4)c3c2)c(Cl)c1 (stereo not shown) [cpd 1, dihydrochloride]
49
4) CN1CCC(C(=O)Nc2n[nH]c3ccc(-c4cc(F)ccc4C#N)cc23)CC1 [compound 136, hydrochloride]
486

---

- Tested on: MOLM-13
- protocol-text: Cytotoxicity assay (CellTiterGlo, 72 hours treatment), MOLM-13
- Format: cell-based, Human
- test-context: Homo sapiens, MOLM-13 acute myeloid leukemia cells, ATP determination, read-out: Cell line IC50 MOLM-13
- Protocol: Cell Lines and Cell Cultures All cell lines were seeded at a density ranging from 2,400 to 8,000 cells/well in 384-well cell culture microplates and incubated at […] in a humidified 5% […] atmosphere 24 hours before treatment. […] Cell viability was determined after 72 hours treatment by ATP determination in each test well with a luciferase-based detection system (CellTiterGlo, Promega, Madison, WI, USA), following manufacturer's instructions. […]
pIC50: −log10 of the molar value. Structures can show the parent of a compound that is named as a salt.
measured-property: pIC50

1) O=C(Nc1n[nH]c2ccc(-c3cc([N+](=O)[O-])ccc3Cl)cc12)[C@@H]1CCCNC1 [cpd 26, hydrochloride]
6.81

---

- target-entity: CDK11A (Homo sapiens);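 also: compound preincubated 30 min with CDK11A-p58, then probe added and polarization (mP) read 15 min later, 0% displacement is probe plus enzyme, 100% is probe alone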
- test-context: displacement of SNS-032-Atto590 probe (0.002 μM) from CDK11A-p58 (0.032 uM), fluorescence polarization
Structures can show the parent of a compound that is named as a salt.
measured-property: log10(DC50) (log10 of the value in nM)

1) CCNC1CC(C(=O)Nc2n[nH]c3ccc(-c4cc(C#N)ccc4Cl)cc23)C1 (stereo not shown) [compound 152, hydrochloride]
1.49
2) COc1c(F)cc(F)c(-c2ccc3[nH]nc(NC(=O)C4CCN(C)CC4)c3c2)c1F [compound 131, hydrochloride]
2.64
3) CCc1ccccc1-c1ccc2[nH]nc(NC(=O)C3CCN(C)CC3)c2c1 [cpd 88, hydrochloride]
2.91
4) COc1ccc(Cl)c(-c2ccc3[nH]nc(NC(=O)[C@@H]4CCCNC4)c3c2)c1 [cpd 18, hydrochloride]
1.40
5) O=C(C[C@@H]1CCCN1)Nc1n[nH]c2ccc(-c3c(Cl)cccc3Cl)cc12 [compound 162, hydrochloride]
2.90
6) N#Cc1ccc(Cl)c(-c2ccc3[nH]nc(NC(=O)[C@@H]4CCC5(CCCCC5)NC4)c3c2)c1 (single isomer, unassigned) [compound 206]
1.36
7) O=C(Nc1n[nH]c2ccc(-c3ccccc3Cl)cc12)[C@@H]1CCCNC1 [cpd 47, hydrochloride]
1.58
